Tested on: OVCAR-5 ovarian
Test Protocol: NCI tumour cell line growth inhibition, 48 h
Metric Name: TGI (µM)

1. C/C=C/[C@@H]1O[C@H](CC#C[Si](C)(C)C)[C@@]2(C=O)C(C)=CC[C@H](C(C)C)[C@@H]12	40.2
2. CC(=O)O/C(=C(/C#N)C(=O)O)C1C(C(=O)O)C(c2ccccc2[N+](=O)[O-])C=C(c2ccco2)N1c1ccncc1 (stereo not given)	27.4
3. COc1cccc(/C=C/C(=O)c2cc3c(N)c(C(=O)Nc4cccc(Cl)c4C)sc3nc2C)c1	3.44
4. CCOC(=O)NNC1(SC)NC(=O)c2c(cc(Cl)oc2=O)O1 (stereo not given)	25.2
5. O=C(COC(=O)c1ccccc1)c1ccc(Br)cc1	22.8

====

System: MDA-MB-435
Test Protocol: NCI tumour cell line growth inhibition, 48 h
Metric Name: TGI

1. CC(=O)NC1CCC(NC(=O)OC(C)(C)C)C(NC(=O)OC(C)(C)C)C1 (centres undefined)	> 100 µM
2. O=c1[nH]nc2c3c(cccc13)NC(CN1Cc3ccccc3C1)=N2	> 100 µM
3. CC1(C)N=C(N)N=C(N)N1c1ccc(CCCCc2ccc(Cl)cc2Cl)cc1	13.9 µM
4. COc1ccc(/C=N/n2c(C)n[nH]c2=O)cc1	> 100 µM
5. N#CC(C#N)=CN1CCN(C(=O)c2ccccc2)C1=S	> 100 µM
6. Cc1cc(S(=O)(=O)NC#N)c(S/C(=N\Nc2ccc([N+](=O)[O-])cc2)c2ccccc2)cc1Cl	> 100 µM
7. Cc1nc(Nc2ccc(F)c(Cl)c2)sc1C(=O)O	5.25 µM
8. CSc1cc(Cl)c(C)cc1S(=O)(=O)NC(=O)NNc1ccccn1	> 100 µM
9. CCOC(=O)C1(Cc2ccccc2)CCN(C(=O)c2ccccc2)C2C1C2(Cl)Cl (centres undefined)	48.3 µM
10. CO/N=C1/C(n2[nH]c(=O)n(-c3ccccc3)c2=O)C2C=CC1n1c(=O)n(-c3ccccc3)c(=O)n12 (centres undefined)	> 100 µM
11. CO/N=C1/NC(=O)/C(=C/c2ccc3ncccc3c2)S1	> 25 µM
12. Nc1ncc(-c2ccc(C(F)(F)F)cc2)c(NC2CCCCCC2)n1	> 100 µM
13. O=C(COC(=O)c1ccccc1)c1ccc(Br)cc1	20.4 µM
14. Cc1cc(-c2nc3ccc(O)cc3s2)ccc1N	> 100 µM
15. Cc1nn2c(/C=C3/C(=O)Nc4ccccc43)c(-c3ccc(Cl)cc3)nc2s1	> 50 µM
16. O=S(=O)(O)Nc1ccc(-c2nc3ccccc3s2)cc1Cl	> 100 µM
17. c1cncc(C(Nc2cccc3cccnc23)Nc2cccc3cccnc23)c1	> 100 µM
18. CC(C)(C)OC(=O)/C=C/C(=O)O/C=C/[N+](=O)[O-]	> 100 µM
19. NC1CCC[C@@H](O)[C@H]1O (some centres undefined)	> 100 µM
20. C[C@@H]1CCN(C(=O)CC#N)C[C@@H]1N(C)c1ncnc2[nH]ccc12	> 100 µM
21. CN(/N=N/c1nc(OCc2ccccc2)c2[nH]cnc2n1)C(=O)N(C)/N=N/c1nc(OCc2ccccc2)c2[nH]cnc2n1	> 100 µM
22. C=C1C(C[C@@H]2O[C@H]3C[C@H]4O[C@@]5(C[C@@H]6O[C@]7(C[C@H](C)[C@@H]8O[C@@H]9CC(C(O)CO)O[C@@H]9C[C@@H]8O7)C[C@H](C)[C@@H]6O5)C[C@H]4O[C@H]3[C@H](C)[C@H]2O)O[C@@H](CC[C@@H]2O[C@@H](CC[C@@]34CC5O[C@H]6C(O[C@H]7CC[C@H](CC(=O)OC)O[C@@H]7[C@@H]6O3)[C@H]5O4)CC2=C)C[C@H]1C (some centres undefined)	0.000183 µM
23. O=C(CNC(=O)c1cccc2ccccc12)Nc1ccccc1Oc1ccccc1	0.313 µM
24. CNC1NC(=O)c2ccccc2N1Cc1ccc(F)cc1 (centres undefined)	> 100 µM
25. O=C(CN=C(CN(c1ccccc1)c1ccccc1)Oc1c([N+](=O)[O-])cc([N+](=O)[O-])cc1[N+](=O)[O-])N1CCNCC1	> 100 µM
26. COc1cc2c(OC)c(c1)CCCC1=CC(=O)C=C(CCC2)C1=O	56.2 µM
27. COc1ccc(C2=C(c3cn(C)c4ccccc34)C(=O)NC2=O)cc1OC	> 25 µM
28. CCOc1cc2ncc(C#N)c(Nc3ccc(F)c(Cl)c3)c2cc1NC(=O)/C=C/CN(C)C	1.42 µM
29. C(/C=N/NC1=NCCN1)=N\NC1=NCCN1	> 100 µM
30. CC1=NN(C(=O)CC(=O)Nc2cccc(Cl)c2)C(=O)C1N=Nc1ccc(S(=O)(=O)c2ccc(N=NC3C(=O)N(C(=O)CC(=O)Nc4cccc(Cl)c4)N=C3C)cc2)cc1 (centres undefined)	> 100 µM
31. Cc1cc2c(C(N)=O)cccc2n1-c1nc2c(c(NCc3ccccc3)n1)CCCN2	0.322 µM
32. CCOC(=O)C#Cc1ccc(C#CC(=O)OCC)cc1	3.86 µM
33. Fc1ccc(-c2nnc3sc(-c4cccc(Cl)c4)nn23)cc1Cl	> 100 µM
34. COc1ccc(CN=C2Nc3ccncc3S(=O)(=O)N2c2ccccc2)cc1	80.7 µM
35. Cc1ccc(NC(=S)NNC(=O)c2cc(-c3ccccc3)nc3ccccc23)cc1C	59.5 µM
36. COc1cc(-c2cn(-c3ccc(Cl)cc3)c(=O)[nH]2)cc(OC)c1OC	> 100 µM
37. CC1(C)OC2CN(C(=O)OCc3ccccc3)C(CO)C2O1 (centres undefined)	> 100 µM
38. CCc1oc2ccccc2c1C(=O)c1cc(Br)c(O)c(Br)c1	> 100 µM
39. COc1cc(-c2cc(-c3nc4ccccc4[nH]3)[nH]n2)cc(OC)c1OC	7.61 µM
